Reported pIC50 values, USP16 (Homo sapiens).
pIC50: −log10 of the molar value.
MEASURED_PARAMETER: pIC50

N#CN1CC[C@@H](NC(=O)c2ccc(F)c(F)c2)C1
3.58
N#CN1CC[C@@H](NC(=O)c2cc(-c3cccc(Cl)c3)no2)C1
5.29
COc1ccccc1-c1cc(C(=O)N[C@@H]2CCN(C#N)C2)n[nH]1
4.65

---

Target: UCHL5 (Homo sapiens, UniProt Q9Y5K5)
Construct: (1-329); purchased Novus biochemicals NBP1-72315
Sequence (Q9Y5K5 1-329): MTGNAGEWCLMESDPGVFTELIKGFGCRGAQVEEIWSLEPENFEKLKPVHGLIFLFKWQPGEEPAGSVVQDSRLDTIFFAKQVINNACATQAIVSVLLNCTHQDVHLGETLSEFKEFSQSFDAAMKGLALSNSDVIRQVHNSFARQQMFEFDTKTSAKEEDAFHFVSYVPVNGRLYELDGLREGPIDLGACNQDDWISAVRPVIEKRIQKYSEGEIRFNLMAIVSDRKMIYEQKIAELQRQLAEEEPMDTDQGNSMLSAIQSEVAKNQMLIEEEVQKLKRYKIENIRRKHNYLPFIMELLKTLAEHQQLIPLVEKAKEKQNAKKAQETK
Assay: High-throughput screening, Ub-RhoMP, single dose 1.25 µM
Type: biochemical
Conditions: crude in-plate synthesized compound, 1.25 µM assuming full conversion
MEASURED_PARAMETER: %inhibition UCHL5 (%)

N#CN1CC[C@@H](NC(=O)CCN(Cc2ccccc2)S(=O)(=O)c2c(Cl)cccc2Cl)C1
5.2
N#CN1CC[C@@H](NC(=O)c2nc(N3CCCC3)ncc2Cl)C1
6.9
N#CN1CC[C@@H](NC(=O)C(Cc2c[nH]cn2)NS(=O)(=O)c2ccc(Cl)cc2)C1 (some centres unmarked)
8.4
N#CN1CC[C@@H](NC(=O)Cc2csc(-c3cnccn3)n2)C1
6.2
N#CN1CC[C@@H](NC(=O)c2ncoc2-c2cccs2)C1
4.4
